target-entity: T1, SF3A1-UBL R791A (human, UniProt Q15459 704-793, R791A)
T1 sequence: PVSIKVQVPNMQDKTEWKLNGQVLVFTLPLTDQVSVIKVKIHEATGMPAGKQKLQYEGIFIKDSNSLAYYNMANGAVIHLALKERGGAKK
experiment-notes: SPR
endpoint-name: Kd (µM)
# number only, unit µM dropped from output

Supply reported Kd belonging to this binder: GGGGACUGCGUUCGCGCUUUCCCC (structured_RNA) [Biotin-U1-SL4-WT]
5.97
